molecular target: Serine/threonine-protein kinase MAK (Homo sapiens); assay: Inhibition of recombinant human MAK using RRRFRPASPLRGP as substrate after 120 mins in presence of [gamma-33ATP] by radiometric scintillation counting analysis
Sequence (P20794 whole entry): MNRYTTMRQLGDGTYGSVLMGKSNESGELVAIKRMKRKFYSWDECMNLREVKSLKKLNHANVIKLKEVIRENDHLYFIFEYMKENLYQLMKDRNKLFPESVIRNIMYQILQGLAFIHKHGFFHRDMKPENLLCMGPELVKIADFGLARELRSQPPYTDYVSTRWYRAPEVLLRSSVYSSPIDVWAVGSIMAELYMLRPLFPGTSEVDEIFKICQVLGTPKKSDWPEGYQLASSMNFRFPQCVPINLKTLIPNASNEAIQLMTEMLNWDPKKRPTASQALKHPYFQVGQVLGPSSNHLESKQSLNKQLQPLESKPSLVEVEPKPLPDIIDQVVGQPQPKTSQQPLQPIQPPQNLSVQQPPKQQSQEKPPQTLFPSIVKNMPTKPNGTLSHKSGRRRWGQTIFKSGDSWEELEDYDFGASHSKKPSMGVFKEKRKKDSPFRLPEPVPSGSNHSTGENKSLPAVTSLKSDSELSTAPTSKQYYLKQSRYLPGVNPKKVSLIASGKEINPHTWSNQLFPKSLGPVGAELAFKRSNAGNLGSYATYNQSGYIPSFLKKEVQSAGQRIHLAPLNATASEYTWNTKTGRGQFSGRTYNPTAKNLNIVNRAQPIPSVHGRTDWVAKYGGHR
measured-attribute: IC50

1. CN(C)c1ccc(C(=O)Nc2cccc(NC(=O)COc3ccc4c(=O)ccoc4c3)c2)cc1 ... > 10 µM

----------
target: Serine/threonine-protein kinase MRCK beta (Homo sapiens, UniProt Q9Y5S2); test: Inhibition of recombinant human MRCKbeta (1 to 473 residues) using KKRNRTLTV as substrate incubated for 40 mins in presence of [gamma-33ATP by radiometric scintillation counting analysis
Sequence (Q9Y5S2 whole entry, the tested form may be a part): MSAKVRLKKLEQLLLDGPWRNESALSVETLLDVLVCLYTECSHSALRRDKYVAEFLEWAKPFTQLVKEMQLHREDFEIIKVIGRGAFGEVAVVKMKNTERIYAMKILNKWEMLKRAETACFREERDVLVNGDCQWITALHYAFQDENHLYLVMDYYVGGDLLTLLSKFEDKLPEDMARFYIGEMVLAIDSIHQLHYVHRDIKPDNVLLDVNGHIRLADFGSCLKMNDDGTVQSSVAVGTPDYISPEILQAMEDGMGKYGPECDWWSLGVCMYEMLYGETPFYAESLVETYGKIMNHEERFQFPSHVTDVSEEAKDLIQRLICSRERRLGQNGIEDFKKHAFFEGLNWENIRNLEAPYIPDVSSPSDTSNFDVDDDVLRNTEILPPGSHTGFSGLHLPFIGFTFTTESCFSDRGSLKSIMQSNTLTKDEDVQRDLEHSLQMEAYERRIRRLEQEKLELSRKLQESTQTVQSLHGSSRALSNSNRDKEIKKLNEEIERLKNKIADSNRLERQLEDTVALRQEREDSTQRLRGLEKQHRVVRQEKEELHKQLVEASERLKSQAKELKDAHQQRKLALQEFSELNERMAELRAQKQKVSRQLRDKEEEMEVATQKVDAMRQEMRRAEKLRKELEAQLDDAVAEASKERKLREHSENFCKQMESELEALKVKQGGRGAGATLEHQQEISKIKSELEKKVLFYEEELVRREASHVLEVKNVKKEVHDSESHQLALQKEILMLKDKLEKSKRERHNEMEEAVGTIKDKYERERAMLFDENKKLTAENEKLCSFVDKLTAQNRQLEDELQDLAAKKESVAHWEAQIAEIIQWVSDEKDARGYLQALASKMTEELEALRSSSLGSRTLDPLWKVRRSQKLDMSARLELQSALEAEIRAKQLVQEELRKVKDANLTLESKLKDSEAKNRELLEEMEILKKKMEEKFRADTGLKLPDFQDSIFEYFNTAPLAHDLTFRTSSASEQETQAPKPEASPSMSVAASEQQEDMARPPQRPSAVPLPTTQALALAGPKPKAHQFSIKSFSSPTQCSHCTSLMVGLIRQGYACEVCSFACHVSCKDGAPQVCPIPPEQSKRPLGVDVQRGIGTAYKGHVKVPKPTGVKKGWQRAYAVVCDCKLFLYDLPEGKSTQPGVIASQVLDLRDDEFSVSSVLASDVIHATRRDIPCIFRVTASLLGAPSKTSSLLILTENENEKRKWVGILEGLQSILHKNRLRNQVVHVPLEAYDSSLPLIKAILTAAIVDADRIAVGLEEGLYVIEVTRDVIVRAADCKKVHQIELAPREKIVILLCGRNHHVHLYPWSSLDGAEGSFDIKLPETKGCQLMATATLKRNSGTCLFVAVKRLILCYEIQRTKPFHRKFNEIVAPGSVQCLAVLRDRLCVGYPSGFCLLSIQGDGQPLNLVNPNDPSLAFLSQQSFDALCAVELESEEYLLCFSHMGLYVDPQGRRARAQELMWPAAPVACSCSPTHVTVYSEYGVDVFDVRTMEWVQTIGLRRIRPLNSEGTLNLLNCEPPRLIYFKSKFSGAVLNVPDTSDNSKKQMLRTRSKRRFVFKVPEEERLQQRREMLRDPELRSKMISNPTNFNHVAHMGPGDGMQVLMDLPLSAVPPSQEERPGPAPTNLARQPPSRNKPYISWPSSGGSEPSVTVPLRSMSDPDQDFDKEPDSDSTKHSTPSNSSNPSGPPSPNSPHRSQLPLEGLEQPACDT
pIC50: −log10 of the molar value.
measured-attribute: pIC50

1. CN(C)c1ccc(C(=O)Nc2cccc(NC(=O)COc3ccc4c(=O)ccoc4c3)c2)cc1 ... < 5.00
